Reported IC50 for the inhibition of the chymotrypsin-like activity of 20S proteasome by item:
- Target desc: chymotrypsin-like activity of 20S proteasome (Bos taurus, UniProt Q2TBX6+Q32KL2)
- Construct: was purified to homogeneity from bovine brain according to published methods; from tissue; host or cells: bovine brain
- Method: 20S proteasome chymotryptic activity inhibition assay (Suc-Leu-Leu-Val-Tyr-AMC cleavage)
- Format: biochemical
- Reported conditions: 2 μg 20S proteasome from bovine brain, 50 μM fluorogenic substrate, 15 minutes at 37° C., pH7.5

Guide cases for IC50 for the inhibition of the chymotrypsin-like activity of 20S proteasome, answers given:
| Molecule | Reported |
| --- | --- |
| CC(C)CC(NC(=O)C(Cc1ccc(O)cc1)NC(=O)C(=O)Cc1c[nH]c2ccccc12)C(=O)NC(CO)C(=O)O (stereo not shown) [Compound 98] | >10 µg/mL |
| CCC(NC(=O)C(=O)Cc1c[nH]c2ccccc12)C(=O)NC(CC(C)C)C(=O)NC(CC(=O)O)C(=O)O (stereo not shown) [Compound 140] | >10 µg/mL |
| CC(C)CC(NC(=O)C(CC(C)C)NC(=O)C(=O)c1c[nH]c2ccccc12)C(=O)O (stereo not shown) [Compound 10] | >10 µg/mL |
| CC(C)CC(NC(=O)C(CC(=O)O)NC(=O)C(=O)Cc1c[nH]c2ccccc12)C(=O)NC(CCC(=O)O)C(=O)O (stereo not shown) [Compound 155] | >10 µg/mL |
| CC(C)CC(NC(=O)CNC(=O)C(=O)Cc1c[nH]c2ccccc12)C(=O)NC(CO)C(=O)O (stereo not shown) [Compound 89] | >10 µg/mL |
| CC(C)CC(NC(=O)C(CC(C)C)NC(=O)C(=O)c1ccccc1)C(=O)O (stereo not shown) [Compound 11] | >10 µg/mL |

Ask: Item CC(C)CC(NC(=O)C(C)NC(=O)C(=O)Cc1c[nH]c2ccccc12)C(=O)NC(Cc1ccccc1)C(=O)O (stereo not shown) [Compound 109] has what recorded IC50 for the inhibition of the chymotrypsin-like activity of 20S proteasome?
Result: >10 µg/mL

====

Reported IC50 for the inhibition of the chymotrypsin-like activity of 20S proteasome by item:
- Target desc: chymotrypsin-like activity of 20S proteasome (Bos taurus, UniProt Q2TBX6+Q32KL2)
- Construct: was purified to homogeneity from bovine brain according to published methods; from tissue; host or cells: bovine brain
- Method: 20S proteasome chymotryptic activity inhibition assay (Suc-Leu-Leu-Val-Tyr-AMC cleavage)
- Assay type: biochemical
- Reported conditions: 2 μg 20S proteasome from bovine brain, 50 μM fluorogenic substrate, 15 minutes at 37° C., pH7.5

| Compound | Target desc | Reported |
| --- | --- | --- |
| CC(C)CC(NC(=O)C(Cc1ccc(-c2ccccc2)cc1)NC(=O)C(=O)Cc1c[nH]c2ccccc12)C(=O)NC(Cc1cccnc1)C(=O)O (stereo not shown) | chymotrypsin-like activity of 20S proteasome (Bos taurus, UniProt Q2TBX6+Q32KL2) | 3 µg/mL |
| CC(C)CC(NC(=O)CCNC(=O)C(=O)Cc1c[nH]c2ccccc12)C(=O)NC(CO)C(=O)O (stereo not shown) | chymotrypsin-like activity of 20S proteasome (Bos taurus, UniProt Q2TBX6+Q32KL2) | >10 µg/mL |
| CC(C)CC(NC(=O)C(CC(=O)O)NC(=O)C(=O)Cc1c[nH]c2ccccc12)C(=O)NC(Cc1ccccc1)C(=O)O (stereo not shown) | chymotrypsin-like activity of 20S proteasome (Bos taurus, UniProt Q2TBX6+Q32KL2) | >10 µg/mL |
| CC(C)CC(NC(=O)C(Cc1cccnc1)NC(=O)C(=O)Cc1c[nH]c2ccccc12)C(=O)NC(C(=O)O)C(C)C (stereo not shown) [Compound 49] | chymotrypsin-like activity of 20S proteasome (Bos taurus, UniProt Q2TBX6+Q32KL2) | >10 µg/mL |
| CC(C)CC(NC(=O)CCNC(=O)C(=O)Cc1c[nH]c2ccccc12)C(=O)NC(C)C(=O)O (stereo not shown) | chymotrypsin-like activity of 20S proteasome (Bos taurus, UniProt Q2TBX6+Q32KL2) | >10 µg/mL |

Ask: chymotrypsin-like activity of 20S proteasome (Bos taurus, UniProt Q2TBX6+Q32KL2) / IC50 for the inhibition of the chymotrypsin-like activity of 20S proteasome / CCCCC(NC(=O)C(CC(C)C)NC(=O)C(NC(=O)C(=O)Cc1c[nH]c2ccccc12)C(C)O)C(=O)O (stereo not shown) : value?
Result: >10 µg/mL

Ask: chymotrypsin-like activity of 20S proteasome (Bos taurus, UniProt Q2TBX6+Q32KL2) / IC50 for the inhibition of the chymotrypsin-like activity of 20S proteasome / CC(C)CC(NC(=O)C(CC(C)C)NC(=O)C(CC(C)C)NC(=O)C(=O)Cc1c[nH]c2ccccc12)C(=O)O (stereo not shown) [Compound 28] : value?
Result: >10 µg/mL
